These data points were gathered from ChEMBL document CHEMBL1148355.

Biological target: Cytosolic phospholipase A2 (Homo sapiens) (UniProt P47712)
Sequence (P47712 whole entry): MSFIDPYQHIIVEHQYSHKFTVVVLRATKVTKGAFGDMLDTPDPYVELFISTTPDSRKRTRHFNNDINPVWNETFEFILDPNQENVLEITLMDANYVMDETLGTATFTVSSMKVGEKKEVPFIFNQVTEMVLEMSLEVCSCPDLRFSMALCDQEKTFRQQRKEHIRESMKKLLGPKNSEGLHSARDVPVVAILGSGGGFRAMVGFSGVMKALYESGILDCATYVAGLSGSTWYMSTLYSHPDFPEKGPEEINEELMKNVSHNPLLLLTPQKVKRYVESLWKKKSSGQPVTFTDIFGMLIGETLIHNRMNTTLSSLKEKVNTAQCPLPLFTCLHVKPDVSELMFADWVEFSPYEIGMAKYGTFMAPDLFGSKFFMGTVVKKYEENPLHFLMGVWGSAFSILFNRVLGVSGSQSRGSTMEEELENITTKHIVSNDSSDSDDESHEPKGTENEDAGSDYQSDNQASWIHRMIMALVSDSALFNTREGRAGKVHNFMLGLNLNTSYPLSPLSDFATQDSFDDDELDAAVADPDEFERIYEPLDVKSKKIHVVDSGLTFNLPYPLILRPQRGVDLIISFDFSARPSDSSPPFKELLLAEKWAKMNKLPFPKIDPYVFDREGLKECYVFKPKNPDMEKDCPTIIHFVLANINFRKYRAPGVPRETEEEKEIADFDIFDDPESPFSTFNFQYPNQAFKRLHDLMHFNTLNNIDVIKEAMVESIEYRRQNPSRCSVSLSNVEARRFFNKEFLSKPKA
Assay: Mole fraction of compound in the total substrate interface required to inhibit human GIVA PLA2 by 50%
measuredProperty: X1(50)

(A) CCCCCCCCCCCCCC(=O)C(=O)N[C@H](CCC(=O)O)Cc1ccccc1
(B) CCCCCCCCCCCCCC(=O)C(=O)N[C@@H](CCCC)CCC(=O)O
(C) CCCCCCCCCCCCCC(=O)C(=O)N[C@@H](C)CCC(=O)O
(D) CCCCCCCCCCC(=O)C(=O)N[C@H](CCCC)CCC(=O)O
stdin: Please list these molecules in decreasing order of X1(50). Your reply should list the labels following the order given in the request.
stdout: D, A, C, B

(I) CCCCCCCCCCOC[C@H](CCC(=O)O)NC(=O)C(=O)CCCCCCCCCC
(II) CCCCCCCCCCC(=O)C(=O)N[C@H](CCC(=O)O)CC(C)C
stdin: Please choose the item with the lower X1(50) value from this pair: I and II Your answer should be the label attached to the chosen record.
stdout: II
